Origin of the recorded values: paper PMC5416870

TEST TARGET: SOX (alkaline exonuclease) (Kaposi's sarcoma-associated herpesvirus …, UniProt P88925 1-486)
EXPERIMENTAL PROTOCOL: fluorescence polarization anisotropy; FPA with 3'FAM oligonucleotides, single site binding fit (GraphPad PRISM6); buffer, pH and temperature as in cited Bagneris et al., not in material
EXPERIMENTAL CONDITIONS: protein: recombinant; label: 3'FAM; stem loop with UGAAG motif
pKd: −log10 of the molar value.
MEASURED ATTRIBUTE: pKd

GFP51 (structured_RNA) RNA: UACGGCAAGCUGACCCUGAAGUUCAUCUGCACCACCGGCAAGCUGCCCGUG    5.30
